Recorded values, source ChEMBL document CHEMBL3817834.

assay: Selectivity index, ratio of IC50 for bovine heart mitochondrial ATP synthase to IC50 for ATP synthase in Mycobacterium smegmatis inverted membrane vesicles
Criterion: Ratio IC50 strictly under 3. Met: class 1. Not met: class 0.

# compound, classification
measured = [
    ("CN(C)CCOc1ncc(Nc2cc(N3CCC(c4ccccc4Cl)C3)nc3cc(F)c(F)cc23)cc1F (stereo not given)", "class 0"),
    ("CN(C)CCOc1ncc(Nc2cc(-c3ccccc3)nc3cc(-c4ccc(F)cc4)[nH]c23)cc1F", "class 0"),
    ("Cn1nc(Nc2nc(NCCC3CCOCC3)nc3ccccc23)cc1C(C)(C)C", "class 0"),
    ("CC(Nc1nc(N2CCCCC2)nc2ccccc12)c1ccccc1 (stereo not given)", "class 1"),
]

Would you kindly look at the next entry?
Prompt: Please let me know if `CCOc1ncc(Nc2nc(NCCC3CCOCC3)nc3cc(OC)c(OC)cc23)cc1F` shows Ratio IC50 below 3.
Response: class 1
